- system: human MC3R (Homo sapiens, UniProt P41968)
- Construct: expressed in transfected cells; host or cells: HEK-293 cells stably expressing the GScAMP22F split-luciferase cAMP sensor (parent reporter line from Promega); MC3R clone generated in-house, G418 selection
- Sequence (P41968 whole entry): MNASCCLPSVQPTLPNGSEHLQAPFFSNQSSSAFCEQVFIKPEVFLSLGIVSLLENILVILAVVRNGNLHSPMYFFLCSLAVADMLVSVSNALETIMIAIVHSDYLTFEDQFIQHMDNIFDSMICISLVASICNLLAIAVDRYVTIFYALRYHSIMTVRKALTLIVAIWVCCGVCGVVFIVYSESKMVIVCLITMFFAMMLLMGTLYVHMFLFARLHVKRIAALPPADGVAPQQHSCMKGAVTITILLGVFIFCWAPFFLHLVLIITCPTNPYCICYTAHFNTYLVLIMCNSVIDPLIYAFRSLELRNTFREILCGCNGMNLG
- testName: split-luciferase cAMP sensor assay, agonist mode (measurement window 1), hMC3R
- Type: cell-based
- assayContext: % maximal activation, agonist mode; read-out: MC3R cAMP % max activation
Positions of bridges follow the written chain, without caps; N, C: chain ends. Non-standard residues stand in square brackets, D forms with d. Residues, ends and D or L forms follow the SMILES beside them. Cit = NC(=O)NCCC[C@H](N)C(=O)O; Aib = CC(C)(N)C(=O)O
parameter: Emax (%)
Quick note: give the figure in %, leave out the unit.

Entry CC(=O)N[C@H]1CSSC[C@@H](C(N)=O)NC(=O)[C@H](Cc2ccccc2)NC(=O)[C@H](CCCNC(=N)N)NC(=O)[C@@H](Cc2ccccc2)NC(=O)[C@H](CCCNC(N)=O)NC(=O)C(C)(C)NC1=O [CTX-1636, cyclo(Cys-Aib-Cit-D-Phe-Arg-Phe-Cys)] (Ac-C[Aib][Cit][dF]RFC-NH2; disulfide 1-7 (inferred)) , Emax reported as 44
